Hello, the source for this data is patent US20250145571A1, in case you need it.

Assay: Plasma stability, rat plasma
Assay type: in vitro ADME
Settings: 1 μM, 37° C.
measured-quantity: half-life at 1 µM

molecule=CCCCCCCCCCCC(=O)OC[n+]1cccc(C(=O)NCCO[N+](=O)[O-])c1.[Cl-] measured_value="1.59 min"
molecule="C[C@H](NC(=O)OC[n+]1cccc(C(=O)NCCO[N+](=O)[O-])c1)C1CCCCC1.O=[N+]([O-])[O-] [reference compound]" measured_value="38.2 min"
molecule=CCOC(=O)[C@H](CCc1ccccc1)N[C@@H](C)C(=O)N1CCC[C@H]1C(=O)O measured_value="18.9 min"
molecule=O=C(NCCO[N+](=O)[O-])c1cccnc1 measured_value="> 60 min"

* * *

Assay: Intestinal microsomal stability, rat
Format: in vitro ADME
Conditions: rat intestinal microsomes 1 mg/mL protein, NADPH, 37° C.; read-out: CLint (μL/min/mg protein)
Reported microsomal CLint at 1 µM values follow for various compounds
measured-quantity: microsomal CLint at 1 µM (µL/min/mg)

compound="C[C@H](NC(=O)OC[n+]1cccc(C(=O)NCCO[N+](=O)[O-])c1)C1CCCCC1.O=[N+]([O-])[O-] [reference compound]" measured_quantity="microsomal CLint at 1 µM" value_qualifier=< measured_value=6
compound="CCCCCCCCCCCC(=O)OC[n+]1cccc(C(=O)NCCO[N+](=O)[O-])c1.[Cl-] [Compound 10]" measured_quantity="microsomal CLint at 1 µM" value_qualifier== measured_value=27
compound="O=C(NCCO[N+](=O)[O-])c1ccc[n+](COC(=O)N2CCCC2C(=O)O)c1.[Cl-] (stereo not shown) [Compound 13]" measured_quantity="microsomal CLint at 1 µM" value_qualifier=< measured_value=6
compound="CCC(C)(C)C(=O)OC[n+]1cccc(C(=O)NCCO[N+](=O)[O-])c1.[Cl-] [Compound 11]" measured_quantity="microsomal CLint at 1 µM" value_qualifier== measured_value=8

* * *

Assay: Intestinal microsomal stability, dog
Format: in vitro ADME
Settings: dog intestinal microsomes 1 mg/mL protein, NADPH, 37° C.
measured-quantity: half-life at 1 µM

compound="C[C@H](NC(=O)OC[n+]1cccc(C(=O)NCCO[N+](=O)[O-])c1)C1CCCCC1.O=[N+]([O-])[O-] [reference compound]" measured_quantity="half-life at 1 µM" measured_value="> 1 h"
compound="CCC(C)(C)C(=O)OC[n+]1cccc(C(=O)NCCO[N+](=O)[O-])c1.[Cl-] [Compound 11]" measured_quantity="half-life at 1 µM" measured_value="> 1 h"
compound="O=C(NCCO[N+](=O)[O-])c1ccc[n+](COC(=O)N2CCCC2C(=O)O)c1.[Cl-] (stereo not shown) [Compound 13]" measured_quantity="half-life at 1 µM" measured_value="> 1 h"
compound="CCCCCCCCCCCC(=O)OC[n+]1cccc(C(=O)NCCO[N+](=O)[O-])c1.[Cl-] [Compound 10]" measured_quantity="half-life at 1 µM" measured_value="0.783 h"

* * *

Assay: Plasma stability, human plasma
Assay type: in vitro ADME
Details: 1 μM, 37° C., parent compound remaining at 60 minutes
measured-quantity: % PCR (at 60 minutes) (%)

molecule="CCCCCCCCCCCC(=O)OC[n+]1cccc(C(=O)NCCO[N+](=O)[O-])c1.[Cl-] [Compound 10]" measured_value=0
molecule="CC(C)[N+](C)(CCOC(=O)C1c2ccccc2Oc2ccccc21)C(C)C [Propantheline Bromide]" measured_value=9.2
molecule="C[C@H](NC(=O)OC[n+]1cccc(C(=O)NCCO[N+](=O)[O-])c1)C1CCCCC1.O=[N+]([O-])[O-] [reference compound]" measured_value=28.7
molecule="O=C(NCCO[N+](=O)[O-])c1cccnc1 [Nicorandil]" measured_value=109
